Reference source for all entries: the supplement of paper PMC11061612

# Tested on: KYSE-180 (Esophageal Squamous Cell Carcinoma)
# assayNotes: combination Emax (second highest fraction inhibited in the dose matrix, 72 h); higher = more inhibition; extreme values may be limits of the assay
parameter: combination Emax

Worked examples, 3 molecules total:
[[record]]
molecule = "CN(CCO)CC[C@H](CSc1ccccc1)Nc1ccc(S(=O)(=O)NC(=O)c2ccc(N3CCC([C@@H](O)c4ccccc4-c4ccc(Cl)cc4)CC3)cc2)cc1S(=O)(=O)C(F)(F)F [AZD4320] + C=CCn1c(=O)c2cnc(Nc3ccc(N4CCN(C)CC4)cc3)nc2n1-c1cccc(C(C)(C)O)n1 [AZD1775] (first compound max 1 µM, partner max 1 µM)"
measvalue = 0.783

[[record]]
molecule = "C=CCn1c(=O)c2cnc(Nc3ccc(N4CCN(C)CC4)cc3)nc2n1-c1cccc(C(C)(C)O)n1 [AZD1775] + C1CN(CCC1(C(=O)N[C@@H](CCO)C2=CC=C(C=C2)Cl)N)C3=NC=NC4=C3C=CN4 [Capivasertib] (first compound max 3 µM, partner max 3 µM)"
measvalue = 0.8

[[record]]
molecule = "NC1(C(=O)N[C@@H](CCO)c2ccc(Cl)cc2)CCN(c2ncnc3[nH]ccc23)CC1 [Capivasertib] + COc1nnc2ccc(N3CCC(c4ccc(OCCN5CCN(C)C(=O)[C@H]5C)cc4)CC3)nn12 [AZD5153] (first compound max 10 µM, 7x7, partner max 1 µM)"
measvalue = 0.616


Now, please, on to the next molecule.
Measured combination Emax for this entry Cc1c2c(nn1C)CSCc1cc(n(C)n1)CSc1cc(c3ccccc3c1)OCCCc1c(C(=O)O)n(C)c3c-2c(Cl)ccc13 [AZD5991] + C[C@@H]1COCCN1C2=NC(=NC(=C2)C3(CC3)[S@](=N)(=O)C)C4=C5C=CNC5=NC=C4 [AZD6738] (first compound max 1 µM, 7x7, partner max 10 µM) on KYSE-180 (Esophageal Squamous Cell Carcinoma): 0.979
